# System: HS 578T breast
# protocol: NCI tumour cell line growth inhibition, 48 h; in the data active means GI50 below about 0.43 µM; inactive means the rest
Respond with a class label; see 1 = active, 0 = inactive

# input Dear all, I need the recorded test outcome for O=C(N/N=C\c1ccc(N(CCCl)CCCl)cc1)c1cccnc1 , thank you.
# output 0

# input Dear all, I need the recorded test outcome for Cc1cc(C)c([I+]c2c(C)cc(C)cc2C)c(C)c1 , thank you.
# output 0

# input Dear all, I need the recorded test outcome for COc1cc(/C=C2\C[C@H]3[C@@H]4CC=C5C[C@@H](O)CC[C@]5(C)[C@H]4CC[C@]3(C)[C@H]2O)ccc1OCCN1CCCCC1 , thank you.
# output 0

# input Dear all, I need the recorded test outcome for Cn1cc(-c2ncnc3ccc(-c4cnc(Cl)c(NS(C)(=O)=O)c4)cc23)c2ccccc21 , thank you.
# output 1

# input Dear all, I need the recorded test outcome for O=C1/C(=C/c2ccc(Cl)cc2)N=C(c2ccccc2)N1c1cc(C(F)(F)F)ccc1Cl , thank you.
# output 0

# input Dear all, I need the recorded test outcome for CCCCNC(=O)Oc1ccc(/C(=C(\C)c2ccc(OC)cc2)c2ccc(OCCN3CCCCC3)cc2)cc1 , thank you.
# output 0

# input Dear all, I need the recorded test outcome for OCC#Cc1ccccc1C#Cc1ccc(C#Cc2ccccc2C#CCO)cc1 , thank you.
# output 0

# input Dear all, I need the recorded test outcome for N#Cc1c(N)c(C(=O)c2ccc3c(c2)OCCO3)n2c1CCCC2 , thank you.
# output 0

###

# Tested on: K-562 leukemia
# protocol: NCI tumour cell line growth inhibition, 48 h
Where a SMILES comes first, the peptide text is derived from it.
readout label: TGI

Illustrative cases are given below, each with its answer.
>>> value_reported("CC(=O)NC(CS)C(=O)NC(CO)C(=O)NC(CO)C(=O)NC(Cc1c[nH]c2ccccc12)C(=O)N1CCCC1C(=O)NC(CO)C(=O)NC(Cc1c[nH]c2ccccc12)C(=O)NC(Cc1c[nH]cn1)C(=O)NC(CO)C(=O)NC(Cc1c[nH]c2ccccc12)C(=O)NCC(=O)NCC(=O)NC(C)C(=O)NC(CCC(N)=O)C(=O)NC(CCCCN)C(=O)NC(C)C(=O)NC(CCCNC(=N)N)C(=O)NC(CCCCN)C(N)=O (stereo unspecified) (Ac-CSSWPSWHSWGGAQKARK-NH2; configuration not given here)")
"28.5 µM"
>>> value_reported("O=P(O)(O)c1ccc2c(c1)OCCOCCOCCOCCO2")
"> 100 µM"
>>> value_reported("Cc1ccc(F)c2[nH]c(-c3ccccc3)cc(=O)c12")
"> 100 µM"
>>> value_reported("COc1cccc(C2SC(C)C(=O)N2NC(=O)C(O)c2ccccc2)c1 (stereo unspecified)")
"> 100 µM"
>>> value_reported("CC(=O)O[C@H]1CC[C@@]2(C)C(=CC[C@H]3C(CC#N)[C@@](C)(C#N)CCC32)C1 (stereo partly specified)")
"> 100 µM"

Now for a further compound.
# input // Input: COC(=O)Cc1cccc2c(=O)c(S(=O)(=O)NC(=O)Nc3ccc(Cl)cc3)c(-c3ccccc3)oc12 . Output its TGI only.
# output > 100 µM

###

# Tested on: SW-620 colon
# protocol: NCI tumour cell line growth inhibition, 48 h
Form field: GI50 (one value per entry).

>>> value_reported("COc1ccc2c(c1)C(=O)/C(=C/c1ccc(O)cc1)O2")
"3.34 µM"
>>> value_reported("O=C(Nc1ccc(Cl)cc1)c1cc(NCc2cc(O)ccc2O)ccc1O")
"4.14 µM"
>>> value_reported("N[C@@H](Cc1c[nH]c2ccccc12)C(=O)NC1CCN(Cc2c[nH]c3ccc(Cl)cc23)CC1")
"4.79 µM"
>>> value_reported("FC(F)(F)c1cccc(Oc2ccc(Nc3ncnc4ccc(OCCCN5CCOCC5)cc34)cc2Cl)c1")
"1.69 µM"
>>> value_reported("CCCCCCCCCCCCCCCCCC1=NC(C)(C)CN1C(C)(C)CO")
"1.48 µM"

# input // Input: N#C[S-].[Ce+3].c1ccc(-c2ccccn2)nc1.c1ccc(-c2ccccn2)nc1.c1ccc(-c2ccccn2)nc1 . Output its GI50 only.
# output 38.9 µM

# input // Input: CC[C@H](C)[C@H](NC(=O)c1ncccn1)C(=O)N(C)[C@H](C[C@@H](OC(C)=O)c1nc(C(=O)N[C@@H](Cc2ccccc2)C[C@H](C)C(=O)OC)cs1)C(C)C . Output its GI50 only.
# output 0.896 µM

# input // Input: CC1(C)N=C(N)N=C(N)N1c1cccc(CCCCc2ccc(Cl)c(S(=O)(=O)F)c2)c1 . Output its GI50 only.
# output 0.455 µM

# input // Input: COc1cc(/C=C2\C(=O)Nc3ccc(Cl)cc32)cc(OC)c1OC . Output its GI50 only.
# output 29.9 µM

###

# System: SNB-78 CNS
# protocol: NCI tumour cell line growth inhibition, 48 h
readout label: TGI

Illustrative cases are given below, each with its answer.
>>> value_reported("COc1ccc2c(c1)c1ccc3c(c1n2C)C(=O)C=CC3=O")
"45.5 µM"
>>> value_reported("C/C=C(\\C)C(=O)OC1C2C(C)=CC(=O)C(O)C2(C)C2C3(O)OCC24C1OC(=O)C(OC(C)=O)C4C(C)C3O (stereo not given)")
"0.141 µM"
>>> value_reported("CCOC(=O)NC(=O)c1cn(CCN(CCO)C(=O)NCCCCCCNC(=O)N(CCO)CCn2cc(C(=O)NC(=O)OCC)c(=O)[nH]c2=O)c(=O)[nH]c1=O")
"> 100 µM"
>>> value_reported("COC1CC(O[C@H]2CC[C@@]3(C)C(=CCC4(O)C3CCC35C(=O)OC6(C)O[C@@]43CCC65)C2)OC(C)C1O (stereo not given in full)")
"> 100 µM"
>>> value_reported("NC1=C(O)/C(=N/NS(=O)(=O)c2ccccc2)C(c2ccc3c(c2)OCO3)O1 (stereo not given)")
"> 100 µM"

# input Recall the reported TGI of CC(=O)N(N=O)c1ccc(N(N=O)C(C)=O)cc1 when tested on SNB-78 CNS.
# output > 100 µM

# input Recall the reported TGI of COc1nc(NC2OC(COC(C)=O)C(OC(C)=O)C(OC(C)=O)C2OC(C)=O)c(N=C(C)C(C)=O)c(=O)n1C (stereo not given) when tested on SNB-78 CNS.
# output > 100 µM

# input Recall the reported TGI of Cc1ccccc1SC(/C=C/NNC1=NC(c2ccccc2)C(c2ccccc2)=NN1)c1ccccc1 (stereo not given) when tested on SNB-78 CNS.
# output 73.9 µM

###

# Test system: EKVX NSCLC
# protocol: NCI tumour cell line growth inhibition, 48 h
readout label: GI50

>>> value_reported("COc1cccc(C2SC(C)C(=O)N2NC(=O)C(O)c2ccccc2)c1 (stereo not drawn)")
"> 100 µM"
>>> value_reported("COC(=O)[C@@H](C)C[C@H](Cc1ccc(F)cc1)NC(=O)c1csc([C@@H](C[C@H](C(C)C)N(C)C(=O)[C@@H](NC(=O)[C@H]2CCCCN2C)C2CC2)OC(C)=O)n1")
"0.88 µM"

# input // Input: COc1ccc2c(c1)C(=O)/C(=C/c1ccc(O)cc1)O2 . Output its GI50 only.
# output 18.6 µM

###

# Test system: SF-539 CNS
# protocol: NCI tumour cell line growth inhibition, 48 h
readout label: GI50

>>> value_reported("O=C(Nc1ccc(Cl)cc1)c1cc(NCc2cc(O)ccc2O)ccc1O")
"1.73 µM"
>>> value_reported("CCOc1ccc(Nc2ccnc3cc(Cl)ccc23)cc1")
"29.4 µM"
>>> value_reported("COc1ccc(-c2oc3ncnc(N)c3c2-c2ccc(NC(=O)Nc3cc(C(F)(F)F)ccc3F)cc2)cc1")
"1.55 µM"
>>> value_reported("COc1ccc2c(c1)C(=O)/C(=C/c1ccc(O)cc1)O2")
"21.6 µM"
>>> value_reported("CC[C@H](C)[C@H](NC(=O)c1ncccn1)C(=O)N(C)[C@H](C[C@@H](OC(C)=O)c1nc(C(=O)N[C@@H](Cc2ccccc2)C[C@H](C)C(=O)OC)cs1)C(C)C")
"2.53 µM"

# input // Input: Cc1cccc2c(=O)c3c(sc12)c(NCCCN)nc1ccccc13 . Output its GI50 only.
# output 1.69 µM

# input // Input: CCCCCCCC(=O)Nc1nc2[nH]c(CN3CCN(Cc4cccc(I)c4)CC3)c(CN3CCN(Cc4cccc(I)c4)CC3)c2c(=O)[nH]1 . Output its GI50 only.
# output 0.88 µM

###

Form field: TGI (one value per entry).
# Test system: SW-620 colon
# protocol: NCI tumour cell line growth inhibition, 48 h

>>> value_reported("Cc1cn(CC2(CO)CCC2)c(=O)[nH]c1=O")
"> 100 µM"
>>> value_reported("CO[C@H]1/C=C/O[C@@]2(C)Oc3c(C)c(O)c4c(O)c(c(/C=N/N5C(C)CN(Cc6ccc(C#N)cc6)CC5C)c(O)c4c3C2=O)NC(=O)/C(C)=C\\C=C\\[C@H](C)[C@H](O)[C@@H](C)[C@@H](O)[C@@H](C)[C@H](OC(C)=O)[C@@H]1C (stereo partly drawn)")
"17.5 µM"
>>> value_reported("Cn1cnc(SC2=CC(=O)C=C3S[C@H]4C[C@@]23c2c(c(O)c3c5c2=NCCC=5C=N3)N4)c1CC(N)C(=O)O (stereo partly drawn)")
"9.52 µM"

# input // Input: NS(=O)(=O)c1ccc(N=Nc2ccc(O)cc2)cc1 . Output its TGI only.
# output > 100 µM

# input // Input: N#Cc1ccc2[nH]cc(Cc3c[nH]c4ccc(C#N)cc34)c2c1 . Output its TGI only.
# output > 50 µM

# input // Input: COc1nc(NC2OC(COC(C)=O)C(OC(C)=O)C(OC(C)=O)C2OC(C)=O)c(N=C(C)C(C)=O)c(=O)n1C (stereo not drawn) . Output its TGI only.
# output > 100 µM

# input // Input: COc1ccc(/C=C/c2cc(OC)c(OC)c(OC)c2)cc1OC . Output its TGI only.
# output > 100 µM

# input // Input: CCOC(=O)C1=NN(c2ccc(C)cc2)C2(c3ccccc3)C=C(c3ccccc3)N(C)CCN12 (stereo not drawn) . Output its TGI only.
# output > 100 µM
